Source listed as ChEMBL document CHEMBL5154736.

method: Competitive inhibition of bacterial NDM-1 using CDC-1 as substrate and measured by Dixon plot analysis
Parameters: species or system Bacteria
endpoint.name: pKi
Give bare numbers, as −log10 of the molar value.

[in] Look at this compound and give its reported pKi. CO[C@H]1C(=O)N2C(C(=O)O)=C(CSc3nc4ccccc4s3)CS[C@H]12
[out] 6.68

----------
method: Inhibition of bacterial NDM-4 using CDC-1 as substrate incubated for 30 mins
Set-up: species or system Bacteria
endpoint.name: IC50 (nM)
Numbers only, in nM.

[in] What IC50 value was documented for this molecule, CO[C@H]1C(=O)N2C(C(=O)O)=C(CSc3nc4ccccc4s3)CS[C@H]12 ?
[out] 210

----------
method: Inhibition of bacterial NDM-1 using CDC-1 as substrate incubated for 30 mins
Set-up: species or system Bacteria
Classification scheme (IC50): bottom end = under 300 nM, midrange = from 300 nM up to 600 nM, top end = 600 nM and over

CO[C@H]1C(=O)N2C(C(=O)O)=C(CSc3ccc(NC(C)=O)cc3)CS[C@H]12 :: bottom end
CO[C@H]1C(=O)N2C(C(=O)O)=C(CSc3nncs3)CS[C@H]12 :: top end
CO[C@H]1C(=O)N2C(C(=O)O)=C(COC(C)=O)CS[C@H]12 :: top end

[in] Hey, which category is CO[C@H]1C(=O)N2C(C(=O)O)=C(C[Se]c3ccccc3)CS[C@H]12 in, do you know?
[out] bottom end

[in] Assign a category based on measured IC50 for CCS[C@H]1C(=O)N2C(C(=O)O)=C(CSC(=O)c3ccccc3)CS[C@H]12 and give only the class name.
[out] midrange

[in] Hi, small favor: classify O=C(O)CN(CCN(CC(=O)O)CC(=O)O)CC(=O)O by its IC50 when you get a moment.
[out] midrange

----------
method: Inhibition of bacterial NDM-1 using CDC-1 as substrate incubated for 30 mins
Design: species or system Bacteria
Give measured pIC50 for each item. Keep answers brief.
Answers are plain numbers, as −log10 of the molar value.

Below: 3 compounds and their reported pIC50.
CCSCC1=C(C(=O)O)N2C(=O)[C@H](OC)[C@H]2SC1 :: 5.92
O=C(O)C1=C(CSC(=O)c2ccccc2)CS[C@@H]2[C@@H](O)C(=O)N12 :: 6.34
CC(C)O[C@H]1C(=O)N2C(C(=O)O)=C(CSC(=O)c3ccccc3)CS[C@H]12 :: 5.85

Would you kindly look at the next entry?
[in] Look at this compound and give its reported pIC50. O=C(Cc1ccccc1)N[C@@H]1C(=O)N2C(C(=O)O)=C(CSC(=O)c3ccccc3)CS[C@H]12
[out] 5.03

----------
method: Inhibition of bacterial NDM-1 using CDC-1 as substrate incubated for 30 mins
Set-up: species or system Bacteria
Give pIC50 for every item shown.
Answers are plain numbers, as −log10 of the molar value.

Known pIC50 results, listed for orientation:
CCOC(=O)CSCC1=C(C(=O)O)N2C(=O)[C@H](OC)[C@H]2SC1 :: 6.21
CO[C@H]1C(=O)N2C(C(=O)O)=C(CSc3ncccn3)CS[C@H]12 :: 6.20
CO[C@H]1C(=O)N2C(C(=O)O)=C(CSc3nnnn3C)CS[C@H]12 :: 6.20
CO[C@H]1C(=O)N2C(C(=O)O)=C(CSc3ccc(C(F)(F)F)cc3)CS[C@H]12 :: 6.30

[in] Form field: reported pIC50 of O=C(Cc1ccccc1)N[C@H]1C(=O)N2C(C(=O)O)=C(CSC(=O)c3ccccc3)CS[C@H]12
[out] 6.66
